- system: human PPARγ (182–505aa) ligand binding domain (Homo sapiens, UniProt P37231)
- Construct: γ(182–505aa); expressed in transfected cells; host or cells: COS-7
- Sequence (P37231 182-505): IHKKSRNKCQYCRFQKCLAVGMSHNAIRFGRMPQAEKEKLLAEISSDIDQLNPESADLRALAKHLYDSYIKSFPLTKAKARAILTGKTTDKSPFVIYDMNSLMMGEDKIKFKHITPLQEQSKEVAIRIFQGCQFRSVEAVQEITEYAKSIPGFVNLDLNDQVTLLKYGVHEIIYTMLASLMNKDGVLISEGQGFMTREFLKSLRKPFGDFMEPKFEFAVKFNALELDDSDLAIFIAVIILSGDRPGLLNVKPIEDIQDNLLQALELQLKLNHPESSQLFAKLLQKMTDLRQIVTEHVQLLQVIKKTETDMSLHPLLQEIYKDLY
- methodDescription: PPAR transfection (Gal4-LBD luciferase reporter) assay, hPPARγ
- Type: cell-based
- assayContext: transfected COS-7 cells, 16 hours, luciferase activity; read-out: hPPAR; EC50 γ (agonist activity)
pEC50: −log10 of the molar value.
readout: pEC50

> print(dat)
                                   molecule  resultvalue
1  COc1ccc(OCCCN(Cc2cccc(O[C@H](C)C(=O)O)c2)c2nc3ccccc3o2)cc1 [Example 82]         5.92
2  CC(C)(Oc1ccc(CCCN(CCc2ccccc2)c2nc3ccccc3s2)cc1)C(=O)O [Compound A]         6.70
3  COc1ccc2oc(N(CCOc3ccc(F)cc3)CCc3cccc(OC(C)C(=O)O)c3)nc2c1 (stereo not shown) [Example 37]         5.38
4  CCC(Oc1cccc(CCN(CCCOc2ccc(F)cc2)c2nc3cc(OC)ccc3o2)c1)C(=O)O (stereo not shown) [Example 51]         5.42
5  CCC(Oc1cccc(CN(CCOc2ccc(F)cc2)c2nc3ccc(F)cc3o2)c1)C(=O)O (stereo not shown) [Example 183]         6.40

a = CC(Oc1cccc(CN(CCOc2ccccc2)c2nc3ccccc3o2)c1)C(=O)O (stereo not shown) [Example 18]
b = C[C@@H](Oc1cccc(CN(CCCOc2ccccc2)c2nc3ccccc3o2)c1)C(=O)O [Example 88]
Query string: I would appreciate it if you could say which entry, a or b , has the lower pEC50 value. // respond with label for picked entry
Result string: b
(b: 5.54, a: 5.92)

====

- system: human PPARγ (182–505aa) ligand binding domain (Homo sapiens, UniProt P37231)
- Construct: γ(182–505aa); expressed in transfected cells; host or cells: COS-7
- methodDescription: PPAR transfection (Gal4-LBD luciferase reporter) assay, hPPARγ
- Assay type: cell-based
- assayContext: transfected COS-7 cells, 16 hours, luciferase activity; read-out: hPPAR; EC50 γ (agonist activity)
pEC50: −log10 of the molar value.
readout: pEC50

> print(dat)
                                   molecule  resultvalue
1  CCC(Oc1cccc(CCN(CCCOc2ccc(OC)cc2)c2nc3cc(F)ccc3o2)c1)C(=O)O (stereo not shown) [Example 49]         5.82

A = COc1ccc(OCCCN(Cc2cccc(OC(C)C(=O)O)c2)c2nc3ccccc3o2)cc1 (stereo not shown) [Example 20]
B = CCC(Oc1cccc(CCN(CCCOc2ccc(Cl)cc2)c2nc3cc(OC)ccc3o2)c1)C(=O)O (stereo not shown) [Example 52]
C = CCC(Oc1cccc(CCN(CCCOc2ccc(Cl)cc2)c2nc3ccccc3o2)c1)C(=O)O (stereo not shown) [Example 53]
Query string: Arrange by pEC50, high to low. Provide the ranking by listing each label in its place in the requested order.
Result string: A, B, C

====

- system: human PPARδ (137–441aa) ligand binding domain (Homo sapiens, UniProt Q03181)
- Construct: δ (137–441aa); expressed in transfected cells; host or cells: COS-7
- Sequence (Q03181 137-441): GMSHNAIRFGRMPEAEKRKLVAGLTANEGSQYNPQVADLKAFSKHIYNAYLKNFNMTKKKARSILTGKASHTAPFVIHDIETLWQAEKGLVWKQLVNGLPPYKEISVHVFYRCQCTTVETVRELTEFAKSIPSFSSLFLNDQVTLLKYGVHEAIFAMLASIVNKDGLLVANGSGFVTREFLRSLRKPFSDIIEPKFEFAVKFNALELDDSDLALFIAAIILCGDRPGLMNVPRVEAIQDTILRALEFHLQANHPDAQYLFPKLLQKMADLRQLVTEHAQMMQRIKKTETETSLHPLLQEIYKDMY
- methodDescription: PPAR transfection (Gal4-LBD luciferase reporter) assay, hPPARδ
- Type: cell-based
- assayContext: transfected COS-7 cells, 16 hours, luciferase activity; read-out: hPPAR; EC50 δ (agonist activity)
pEC50: −log10 of the molar value.
readout: pEC50

Worked cases, answers included:
> print(dat)
                                   compound                                    system  resultvalue
1  CCC(Oc1cccc(CN(CCOc2ccccc2)c2nc3cc(F)ccc3o2)c1)C(=O)O (centres unmarked)  human PPARδ (137–441aa) ligand binding domain (Homo sapiens, UniProt Q03181)         5.74
2  CCC(Oc1cccc(CCN(CCCOc2ccccc2)c2nc3cc(F)ccc3o2)c1)C(=O)O (centres unmarked)  human PPARδ (137–441aa) ligand binding domain (Homo sapiens, UniProt Q03181)         5.80
3  CC(Oc1cccc(CN(CCCOc2ccc(F)cc2)c2nc3cc4c(cc3o2)OCO4)c1)C(=O)O (centres unmarked)  human PPARδ (137–441aa) ligand binding domain (Homo sapiens, UniProt Q03181)         5.70

A = CC(Oc1cccc(CN(CCCOc2ccccc2)c2nc3cc4c(cc3o2)OCO4)c1)C(=O)O (centres unmarked)
B = CC(Oc1cccc(CN(CCOc2ccc(F)cc2)c2nc3ccccc3o2)c1)C(=O)O (centres unmarked)
C = CCC(Oc1cccc(CN(CCCOc2ccc(C)cc2)c2nc3ccccc3o2)c1)C(=O)O (centres unmarked)
Query string: Arrange by pEC50, high to low. Provide the ranking by listing each label in its place in the requested order.
Result string: C, A, B
